Test: YAP1 pathway inhibitors via CTGF transcript, primary screen, DLD1 colon cancer cells, RT-qPCR, single point (AID 743449);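 note: 0% = neutral control wells and 100% = dasatinib control wells; higher means stronger suppression of CTGF expression like dasatinib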
Conditions: DLD1 CTGF mRNA qPCR, 24 h; at 12.5 µM
Screen size: about 9,900 compounds; about 90 (0.9%) were called active. Inconclusive results (about 2%) are left out.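 Rule for the calls: active = mean normalized replicate activity at least 50 and at least half of replicates each reaching 50; inconclusive = only one of the two criteria met; inactive = neither criterion met.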 The list comes from a sample in which actives are over-represented; it also holds close analogues and randomly drawn compounds.
// classify into t = active, f = inactive

- compound: "C[C@@H]1CC=CC[C@@H](c2cccc(Cl)c2)NC(=O)[C@H](Cc2ccccc2)N(C)C(=O)c2ccccc2O1 (mixture of isomers)"
  category-label: "t"
- compound: "COCC(=O)N1CC[C@@H]2[C@H](CO)Nc3ccc(C#Cc4ccc(F)cc4)cc3[C@@H]21"
  category-label: "t"
- compound: "COc1ccccc1C#Cc1ccc([C@@H]2[C@H]3CN(C(=O)C4CCC4)CCCCN3[C@H]2CO)cc1"
  category-label: "f"
- compound: "COCC(=O)N1CC[C@@H]2[C@H]1c1cc(C#Cc3ccc(F)cc3)ccc1N[C@@H]2CO"
  category-label: "f"
- compound: "CO[C@H]1CN(C)C(=O)c2cc(NC(=O)Nc3ccccc3F)ccc2OC[C@H](C)N(CCC(F)(F)F)C[C@@H]1C"
  category-label: "t"
- compound: "Cc1ccc(S(=O)(=O)N2C[C@@H](O)COC[C@H]3O[C@@H](CC(=O)NCc4ccc5c(c4)OCO5)CC[C@@H]32)cc1"
  category-label: "f"
- compound: "C[C@@H]1CCCCO[C@@H](CN(C)Cc2ccc(C(=O)O)cc2)[C@H](C)CN([C@H](C)CO)C(=O)c2cc(N(C)C)ccc2O1"
  category-label: "f"
- compound: "C[C@H]1CC=CC[C@H](c2cccc(Cl)c2)NC(=O)[C@@H](Cc2ccccc2)N(C)C(=O)c2ccccc2O1 (mixture of isomers)"
  category-label: "f"

What was the test verdict on CCC(=O)N1C[C@H](C)[C@@H](OC)CN(C)C(=O)c2cc(NC(=O)Nc3ccc(Cl)cc3)ccc2OC[C@@H]1C ?
t

What was the test verdict on CCC(=O)N1C[C@@H](C)[C@@H](OC)CN(C)C(=O)c2cc(NC(=O)Nc3ccc(Cl)cc3)ccc2OC[C@H]1C ?
f

What was the test verdict on CCCN1C[C@@H](C)[C@H](OC)CN(C)C(=O)c2cc(NS(=O)(=O)c3ccccc3)ccc2OC[C@@H]1C ?
f

====

I'd be grateful if you could share measured inhibition for these entries.
Assay: YAP1 pathway inhibitors via CTGF transcript, primary screen, DLD1 colon cancer cells, RT-qPCR, single point (AID 743449);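 note: 0% = neutral control wells and 100% = dasatinib control wells; higher means stronger suppression of CTGF expression like dasatinib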
Conditions: DLD1 CTGF mRNA qPCR, 24 h; at 12.5 µM; active compounds read high
In all, about 9,900 compounds went through this assay and about 90 (0.9%) were called active. About 2% were inconclusive and are not listed. The full list was thinned out, with actives kept by preference.
Numbers only, in %.

Reference set, count: 10
- input-smiles: "C[C@H]1CN([C@@H](C)CO)C(=O)c2cc(-c3ccncc3)cnc2O[C@@H]1CN(C)C(=O)CN1CCOCC1"
  result-unit: "%"
  inhibition: 4.89
- input-smiles: "CCCN1C[C@H](C)[C@H](OC)CN(C)C(=O)c2cc(NC(=O)Nc3cccc(F)c3)ccc2OC[C@@H]1C"
  result-unit: "%"
  inhibition: 6.58
- input-smiles: "C[C@@H](NC(=O)C[C@H]1C=C[C@H](NS(=O)(=O)c2cccc(F)c2)[C@H](CO)O1)c1ccccc1"
  result-unit: "%"
  inhibition: -23.7
- input-smiles: "COc1ccc2c3c([nH]c2c1)[C@H](CO)NCC31CN(C(=O)Nc2c(C)noc2C)C1"
  result-unit: "%"
  inhibition: -10.8
- input-smiles: "COc1cccc(C#Cc2ccc3c(c2)O[C@@H](CN(C)C(=O)CN2CCOCC2)[C@@H](C)CN([C@H](C)CO)S3(=O)=O)c1"
  result-unit: "%"
  inhibition: 8.35
- input-smiles: "Cc1noc(C)c1S(=O)(=O)N(C)C[C@H]1OCCCC[C@H](C)Oc2ccc(NC(=O)CCC(F)(F)F)cc2C(=O)N([C@@H](C)CO)C[C@@H]1C"
  result-unit: "%"
  inhibition: 8.01
- input-smiles: "C[C@H]1CN([C@@H](C)CO)C(=O)c2cc(NC(=O)C3CC3)ccc2O[C@@H]1CN(C)S(=O)(=O)c1ccccc1"
  result-unit: "%"
  inhibition: -17.4
- input-smiles: "C/C=C/c1ccc([C@H]2[C@@H](CNC(=O)CC3CC3)N(C(=O)CC)[C@H]2CO)cc1"
  result-unit: "%"
  inhibition: -13.1
- input-smiles: "CO[C@@H](CN(C)S(=O)(=O)c1cccc(Cl)c1)[C@H](C)CN(C(=O)Nc1ccccc1F)[C@H](C)CO"
  result-unit: "%"
  inhibition: -17
- input-smiles: "COc1cccc(C#Cc2ccc3c(c2)O[C@H](CN(C)C(=O)CN2CCOCC2)[C@H](C)CN([C@@H](C)CO)S3(=O)=O)c1"
  result-unit: "%"
  inhibition: 22.3

Give inhibition for each of the items listed below.
1. CC(C)NC(=O)N[C@@H]1CC[C@H](CC(=O)NCCCN(C)C)O[C@@H]1CO
2. C[C@@H]1CN([C@@H](C)CO)S(=O)(=O)c2ccc(C#Cc3cccc(F)c3)cc2O[C@@H]1CN(C)S(=O)(=O)c1cn(C)cn1
3. CO[C@@H]1CC[C@H]2CCOc3ccc(C#N)cc3C(=O)N(C)C[C@@H](c3ccccc3)CC(=O)N(C)C[C@@H]1O2
4. C[C@@H]1CN([C@H](C)CO)C(=O)CCCn2nncc2CO[C@@H]1CN(C)C(=O)c1cc(-c2ccccc2)on1
5. CCC(=O)N(CC(C)C)C[C@@H]1[C@@H](c2ccccc2)[C@H](CO)N1C(=O)C1CCC1

50.2
40.9
-20.2
66
3.26

Give inhibition for each of the items listed below.
1. CO[C@H]1CC[C@@H]2CCOc3ccc(C#N)cc3C(=O)N(C)C[C@@H](c3ccccc3)CC(=O)N(C)C[C@@H]1O2
2. C[C@H](CO)N1C[C@H](C)[C@@H](CN(C)C(=O)c2cc(-c3ccccc3)on2)OCc2cnnn2CCCC1=O

1. -39.9
2. -12.2
